- Experimental system: human serum albumin (human) (UniProt P02768)
- Sequence (P02768 25-609 limits assumed): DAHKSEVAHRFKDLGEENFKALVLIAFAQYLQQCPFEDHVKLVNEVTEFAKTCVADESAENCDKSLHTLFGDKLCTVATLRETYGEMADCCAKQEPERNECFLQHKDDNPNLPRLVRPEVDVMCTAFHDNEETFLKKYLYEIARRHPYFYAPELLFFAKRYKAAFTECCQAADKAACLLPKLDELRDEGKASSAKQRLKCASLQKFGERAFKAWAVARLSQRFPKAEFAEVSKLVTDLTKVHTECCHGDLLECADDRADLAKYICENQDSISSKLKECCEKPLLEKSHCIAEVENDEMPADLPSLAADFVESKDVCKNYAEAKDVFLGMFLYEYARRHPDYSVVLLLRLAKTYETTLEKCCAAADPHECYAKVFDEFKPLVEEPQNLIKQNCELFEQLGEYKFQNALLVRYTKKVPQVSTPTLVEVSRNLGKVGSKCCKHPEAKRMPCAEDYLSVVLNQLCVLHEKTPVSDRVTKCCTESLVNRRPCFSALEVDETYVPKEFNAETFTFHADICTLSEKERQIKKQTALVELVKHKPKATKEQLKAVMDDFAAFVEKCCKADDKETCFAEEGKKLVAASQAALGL
- Assay summary: screening ELISA
Property label: HSA

a = SEQ ID NO 185 (designed binder) MLPAPKNLVVSRVTEDSARLSWTAPDAAFDSFEIDYDELAIYGEAIVLTVPGSERSYDLTGLKPGTEYGVMIIGVKGGLPSDPLSAIFTT
b = SEQ ID NO 159 (designed binder) MLPAPKNLVVSRVTEDSARLSWTAPDAAFDSFLIPYAETSPSGEAIVLTVPGSERSYDLTGLKPGTEYSVLIHGVKGGRNSDPLSAIFTT
c = SEQ ID NO 142 (designed binder) MLPAPKNLVVSRVTKDSARLSWTAPDAAFDSFHIAYEEATTYGEAIFLRVPGSERSYDLTGLKPGTEYEVKIHGVKGGADSKPLVAPFTT
Hi! Can you put these in order of HSA, lowest number first? Would you mind listing the labels in the order requested?
b, c, a
